Overview of reported pKD across a group of binders:
Molecular target: Fc-fusion protein of human carbonic anhydrase IX (human, UniProt Q16790 38-414)
Assay: SPR, captured hCAIX-Fc; pKD category A: >8.0
Protocol: Stock solutions of test compounds were prepared by dissolving each compound in DMSO. DMSO stock solution were diluted 1:1000 in Running Buffer without DMSO. […] SPR binding analyses were performed in Single Cycle Kinetic (SCK) mode at 25° C. For each test compound, SPR raw data in the form of resonance units (RU) were plotted as sensorgrams using the Biacore™ T200 control software. […] The pKD value (negative decadic logarithm of dissociation constant) was calculated in the IDBS excel template.
Starred links: 1 amine or outer side, 2 acyl side, 3 side chain; linkers in the order of their positions; H or OH if unused. Positions of bridges follow the written chain, without caps; N, C: chain ends. Non-standard residues stand in square brackets, D forms with d. Primed or numbered codes have the meaning given here. *: point of attachment. Aph(2Ta5Sa)″ = 4-amino-L-phenylalanine, ring amine acylated by 5-sulfamoyl-thiophene-2-carboxylic acid, NS(=O)(=O)c1ccc(C(=O)Nc2ccc(C[C@H](N[*:1])C(=O)[*:2])cc2)s1; Phe(3-NHCO(CH2)3SO2NH2) = N[C@@H](Cc1cccc(NC(=O)CCCS(N)(=O)=O)c1)C(=O)O; DOTA = O=C(O)CN1CCN(CC(=O)O)CCN(CC(=O)*)CCN(CC(=O)O)CC1; mXylylene = c1cc(C[*:1])cc(C[*:2])c1; PPAc″ = not defined here; Rni = not defined here
readout-label: pKD

{"columns": ["binder", "readout-label", "result"],
 "data": [
  ["{DOTA-PPAc″}-YCE[dP]D[Aph(2Ta5Sa)″]LTWSC-NH2 (linker 2-11 via mXylylene; reading uncertain) [3BP-4457]", "pKD", "> 8 pkd"],
  ["{DOTA-Rni}-YCE[dP]D[Phe(3-NHCO(CH2)3SO2NH2)]LTWSC-NH2 (linker 2-11 via mXylylene; reading uncertain) [3BP-4455]", "pKD", "> 8 pkd"]
]}
